# System: Pasteurella multocida
# Experimental protocol: minimum inhibitory concentration (MIC)
# Settings: isolate (source animal id): 227
Would you mind telling me the reported minimum inhibitory concentration of each entry?

[ask] Identify the reported minimum inhibitory concentration for the following entry. CN(C)[C@@H]1C(O)=C(C(N)=O)C(=O)[C@@]2(O)C(O)=C3C(=O)c4c(O)cccc4[C@@](C)(O)[C@H]3C[C@@H]12 [Tetracycline]
[reply] > 8 µg/mL

[ask] Read off the recorded minimum inhibitory concentration for CN[C@@H]1[C@H](O)[C@H](NC)[C@H]2O[C@@]3(O)C(=O)C[C@@H](C)O[C@H]3O[C@@H]2[C@H]1O [Spectinomycin]
[reply] > 64 µg/mL

[ask] Please give measured minimum inhibitory concentration of the following entry: NC[C@@H]1O[C@H](O[C@H]2[C@@H](O)[C@H](O[C@@H]3[C@@H](O)[C@H](N)C[C@H](N)[C@H]3O[C@H]3O[C@H](CN)[C@@H](O)[C@H](O)[C@H]3N)O[C@@H]2CO)[C@H](N)[C@@H](O)[C@@H]1O [Neomycin]
[reply] > 32 µg/mL

[ask] Give the reported value of minimum inhibitory concentration for this record: COc1cc(NS(=O)(=O)c2ccc(N)cc2)nc(OC)n1 [sulfadimethoxine]
[reply] > 256 µg/mL

[ask] Look up and report measured minimum inhibitory concentration for this entry: CC1(C)S[C@@H]2[C@H](NC(=O)Cc3ccccc3)C(=O)N2[C@H]1C(=O)O [Penicillin]
[reply] ≤ 0.12 µg/mL

Data origin: the supplement of paper PMC8612539
